System: BRODI
Assay: Greenhouse test, pre-emergence (PE) soil application
Assay type: in vivo, Bromus diformis
Parameters: key: % effect: 0 = no effect, 100 = full effect vs untreated
Settings: group (B) compound alone, 20 g of AS/ha
Below, each entry is listed with its recorded effect on BRODI resistant - group A (TSR), B (NTR) and G (NTR).
Form: value (number only, do not type unit).

Example entries and their recorded answers appear below.
INSERT INTO measurements (molecule, numeric_result) VALUES
  ('CCS(=O)(=O)c1cccnc1S(=O)(=O)NC(=O)Nc1nc(OC)cc(OC)n1 [(B3), rimsulfuron]', 70),
  ('CCOC(=O)c1ccccc1S(=O)(=O)NC(=O)Nc1nc(Cl)cc(OC)n1 [(B4), chlorimuron-ethyl]', 80),
  ('COc1cc(OC)nc(NC(=O)NS(=O)(=O)c2cc(NC=O)ccc2C(=O)N(C)C)n1 [(B2), foramsulfuron]', 70),
  ('COc1cc(OC)nc(NC(=O)NS(=O)(=O)c2ncccc2C(F)(F)F)n1 [(B1), flazasulfuron]', 70);

# context switch: different molecule, same effect on BRODI resistant - group A (TSR), B (NTR) and G (NTR)
Need effect on BRODI resistant - group A (TSR), B (NTR) and G (NTR), item COC(=O)c1csc(C)c1S(=O)(=O)NC(=O)n1nc(OC)n(C)c1=O [(B5), thiencarbazone-methyl] 70

----------
Tested on: EPHHL
Assay: Greenhouse test, pre-emergence (PE) soil application
Format: in vivo, Euphorbia heterophylla
Parameters: key: % effect: 0 = no effect, 100 = full effect vs untreated
Details: group (B) compound alone, 20 g of AS/ha
ASSAY METRIC: effect on EPHHL sensitive
Form: value (number only, do not type unit).

Example entries and their recorded answers appear below.
INSERT INTO results (smiles_record, numeric_result) VALUES
  ('COc1cc(OC)nc(NC(=O)NS(=O)(=O)c2ncccc2C(F)(F)F)n1', 40),
  ('COC(=O)c1csc(C)c1S(=O)(=O)NC(=O)n1nc(OC)n(C)c1=O', 30),
  ('COc1cc(OC)nc(NC(=O)NS(=O)(=O)c2cc(NC=O)ccc2C(=O)N(C)C)n1', 30),
  ('CCS(=O)(=O)c1cccnc1S(=O)(=O)NC(=O)Nc1nc(OC)cc(OC)n1', 30);

# context switch: different compound, same effect on EPHHL sensitive
Need effect on EPHHL sensitive, item CCOC(=O)c1ccccc1S(=O)(=O)NC(=O)Nc1nc(Cl)cc(OC)n1 60

----------
Tested on: AMATA
Assay: Greenhouse test, post-emergence (PO) application, foliar effect
Assay type: in vivo, Amaranthus rudis
Details: AMATA sensitive, (A) 50, (B) 20, mixture 50 + 20 g of AS/ha, 3 weeks after application
Below, each entry is listed with its recorded foliar effect.
Dear colleague, please return just the value in %, with no unit written.

Example entries and their recorded answers appear below.
INSERT INTO measurements (compound, measured_on, numeric_result) VALUES
  ('CCOC(=O)c1ccccc1S(=O)(=O)NC(=O)Nc1nc(Cl)cc(OC)n1', 'AMATA', 30),
  ('CCS(=O)(=O)c1cccnc1S(=O)(=O)NC(=O)Nc1nc(OC)cc(OC)n1', 'AMATA', 70),
  ('Cc1ccc2c(c1)[C@H](Nc1nc(N)nc(C(C)F)n1)[C@@H](C)C2 (stereo partly drawn)', 'AMATA', 50),
  ('COC(=O)c1csc(C)c1S(=O)(=O)NC(=O)n1nc(OC)n(C)c1=O', 'AMATA', 30),
  ('COc1cc(OC)nc(NC(=O)NS(=O)(=O)c2cc(NC=O)ccc2C(=O)N(C)C)n1', 'AMATA', 40);

Need foliar effect, item COc1cc(OC)nc(NC(=O)NS(=O)(=O)c2ncccc2C(F)(F)F)n1 60

----------
Below, each entry is listed with its recorded foliar effect.
Test system: AMATA
Experiment: Greenhouse test, post-emergence (PO) application, foliar effect
Format: in vivo, Amaranthus rudis
Details: AMATA resistant - group B (TSR), C1 (TSR), (A) 50, (B) 20, mixture 50 + 20 g of AS/ha, 3 weeks after application
Dear colleague, please return just the value in %, with no unit written.

Example entries and their recorded answers appear below.
INSERT INTO measurements (compound, assay_metric, numeric_result) VALUES
  ('CCOC(=O)c1ccccc1S(=O)(=O)NC(=O)Nc1nc(Cl)cc(OC)n1 [(B4), chlorimuron-ethyl]', 'foliar effect', 60),
  ('COc1cc(OC)nc(NC(=O)NS(=O)(=O)c2cc(NC=O)ccc2C(=O)N(C)C)n1 [(B2), foramsulfuron]', 'foliar effect', 90),
  ('Cc1ccc2c(c1)[C@H](Nc1nc(N)nc(C(C)F)n1)[C@@H](C)C2 (stereo partly drawn) [(A), indaziflam]', 'foliar effect', 40),
  ('CCS(=O)(=O)c1cccnc1S(=O)(=O)NC(=O)Nc1nc(OC)cc(OC)n1 [(B3), rimsulfuron]', 'foliar effect', 90),
  ('COc1cc(OC)nc(NC(=O)NS(=O)(=O)c2ncccc2C(F)(F)F)n1 [(B1), flazasulfuron]', 'foliar effect', 50);

# context switch: different compound, same foliar effect
Need foliar effect, item COC(=O)c1csc(C)c1S(=O)(=O)NC(=O)n1nc(OC)n(C)c1=O [(B5), thiencarbazone-methyl] 40

----------
Test system: TTTTT (all resistant and sensitive biotypes)
Assay: Greenhouse test, PO application, mean over all resistant and sensitive biotypes
Type: in vivo
Settings: mean of resistant biotypes (n = 17 or n = 15), (A) 50, (B) 20, mixture 50 + 20 g of AS/ha
ASSAY METRIC: TTTTT resistant mean (effect) (%)
Dear colleague, please return just the value in %, with no unit written.

INSERT INTO assay_data (compound, numeric_result) VALUES
  ('COC(=O)c1csc(C)c1S(=O)(=O)NC(=O)n1nc(OC)n(C)c1=O', 25),
  ('COc1cc(OC)nc(NC(=O)NS(=O)(=O)c2cc(NC=O)ccc2C(=O)N(C)C)n1', 34),
  ('CCS(=O)(=O)c1cccnc1S(=O)(=O)NC(=O)Nc1nc(OC)cc(OC)n1', 46),
  ('CCOC(=O)c1ccccc1S(=O)(=O)NC(=O)Nc1nc(Cl)cc(OC)n1', 31),
  ('Cc1ccc2c(c1)[C@H](Nc1nc(N)nc(C(C)F)n1)[C@@H](C)C2 (stereo partly drawn)', 53);

# context switch: different compound, same TTTTT resistant mean (effect)
# returns recorded TTTTT resistant mean (effect) (system: TTTTT (all resistant and sensitive biotypes)) for COc1cc(OC)nc(NC(=O)NS(=O)(=O)c2ncccc2C(F)(F)F)n1 40

----------
Below, each entry is listed with its recorded foliar effect.
Tested on: KCHSC
Test: Greenhouse test, post-emergence (PO) application, foliar effect
Assay type: in vivo, Kochia scoparia
Settings: KCHSC resistant - group B (TSR), (A) 50, (B) 20, mixture 50 + 20 g of AS/ha, 3 weeks after application
Procedure: The 1:1 mixture of the two soil types was used specifically for cultivating small-seeded dicotyledonous weed since the standard field soil on its own tends to silt up, which may have an adverse effect on the emergence of small-seeded weeds. The resistances mentioned in the tables were confirmed beforehand in standard monitoring experiments. […] 3 weeks after the application, the foliar effect was evaluated on a scale of 0-100%: […]
Dear colleague, please return just the value in %, with no unit written.

INSERT INTO assay_data (compound, measured_on, measurement_unit, numeric_result) VALUES
  ('COc1cc(OC)nc(NC(=O)NS(=O)(=O)c2cc(NC=O)ccc2C(=O)N(C)C)n1 [(B2), foramsulfuron]', 'KCHSC', '%', 0);

Need foliar effect, item Cc1ccc2c(c1)[C@H](Nc1nc(N)nc(C(C)F)n1)[C@@H](C)C2 (stereo partly drawn) [(A), indaziflam] 30

Need foliar effect, item COC(=O)c1csc(C)c1S(=O)(=O)NC(=O)n1nc(OC)n(C)c1=O [(B5), thiencarbazone-methyl] 0

Need foliar effect, item CCS(=O)(=O)c1cccnc1S(=O)(=O)NC(=O)Nc1nc(OC)cc(OC)n1 [(B3), rimsulfuron] 0

Need foliar effect, item COc1cc(OC)nc(NC(=O)NS(=O)(=O)c2ncccc2C(F)(F)F)n1 [(B1), flazasulfuron] 0

Need foliar effect, item CCOC(=O)c1ccccc1S(=O)(=O)NC(=O)Nc1nc(Cl)cc(OC)n1 [(B4), chlorimuron-ethyl] 0

----------
Below, each entry is listed with its recorded foliar effect.
Test system: BRODI
Test: Greenhouse test, post-emergence (PO) application, foliar effect
Assay type: in vivo, Bromus diformis
Settings: BRODI resistant - group A (TSR), B (NTR) and G (NTR), (A) 50, (B) 20, mixture 50 + 20 g of AS/ha, 3 weeks after application
Description: The 1:1 mixture of the two soil types was used specifically for cultivating small-seeded dicotyledonous weed since the standard field soil on its own tends to silt up, which may have an adverse effect on the emergence of small-seeded weeds. The resistances mentioned in the tables were confirmed beforehand in standard monitoring experiments. […] 3 weeks after the application, the foliar effect was evaluated on a scale of 0-100%: […]
I'd appreciate it if you included the unit after the number.

Need foliar effect, item COc1cc(OC)nc(NC(=O)NS(=O)(=O)c2ncccc2C(F)(F)F)n1 [(B1), flazasulfuron] 75%

Need foliar effect, item COC(=O)c1csc(C)c1S(=O)(=O)NC(=O)n1nc(OC)n(C)c1=O [(B5), thiencarbazone-methyl] 50%

Need foliar effect, item CCOC(=O)c1ccccc1S(=O)(=O)NC(=O)Nc1nc(Cl)cc(OC)n1 [(B4), chlorimuron-ethyl] 70%
